// provenance: patent US9862676B2

System: Klebsiella pneumoniae ATCC13883 strain
Assay: Antibacterial activity, MIC by broth microdilution (CLSI)
Format: cell-based
Below, each entry is listed alongside its reported MIC.
Value expressed in µg/mL; do not type the unit.

// solved cases for MIC follow
CNC(=O)[C@@](C)(C(=O)NO)N(C)C(=O)c1ccc(C#Cc2ccc(CO[C@H](C)CO)cc2)cc1: 0.5
CNC(=O)[C@@](C)(C(=O)NO)N(C)C(=O)c1ccc(C#Cc2ccc(CO[C@@H](C)CO)cc2)cc1: 1
CNC(=O)[C@@](C)(C(=O)NO)N(C)C(=O)c1ccc(C#Cc2ccc([C@H](O)COC)cc2)cc1: 1
CNC(=O)[C@@](C)(C(=O)NO)N(C)C(=O)c1ccc(C#Cc2ccc([C@H](O)CCCO)cc2)cc1: 1
CNC(=O)[C@@](C)(C(=O)NO)N(C)C(=O)c1ccc(C#Cc2ccc([C@@H](C)O)cc2)cc1: 0.5
CNC(=O)[C@@](C)(C(=O)NO)N(C)C(=O)c1ccc(C#Cc2ccc(COCCO)cc2)cc1: 1

Data request: Would you kindly share the measured MIC for CNC(=O)[C@@](C)(C(=O)NO)N(C)C(=O)c1ccc(C#Cc2ccc([C@@H](O)COC)cc2)cc1 ?
Data returned: 1
